Please go through the items and note down their self-cleavage.
B1: CPEB3 Ribozyme (parent)
chain: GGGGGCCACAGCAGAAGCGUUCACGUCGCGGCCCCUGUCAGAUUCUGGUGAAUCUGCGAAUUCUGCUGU

Variants of: B1
Test: self-cleavage, relative activity (ratio to wild type); higher = more cleavage; co-transcriptional

Exercise: Find the recorded self-cleavage belonging to G3A U62G and report it.
Key: 0.392

Exercise: Find the recorded self-cleavage belonging to U49C G65A and report it.
Key: 0.89

Exercise: Find the recorded self-cleavage belonging to G48C C57G and report it.
Key: 0.285

Exercise: Find the recorded self-cleavage belonging to U20A C32A and report it.
Key: 0.153

Exercise: Find the recorded self-cleavage belonging to G41U G68U and report it.
Key: 0.972

Exercise: Find the recorded self-cleavage belonging to G5U A16U and report it.
Key: 0.127

Exercise: Find the recorded self-cleavage belonging to A40C G56A and report it.
Key: 0.546

Exercise: Find the recorded self-cleavage belonging to G17U U26C and report it.
Key: 0.286

Exercise: Find the recorded self-cleavage belonging to C24A U53A and report it.
Key: 0.537

Exercise: Find the recorded self-cleavage belonging to A13C C22U and report it.
Key: 0.209

Exercise: Find the recorded self-cleavage belonging to C18A A40U and report it.
Key: 0.0764

Exercise: Find the recorded self-cleavage belonging to G2A C29A and report it.
Key: 0.0397

Exercise: Find the recorded self-cleavage belonging to G4A A42G and report it.
Key: 0.806

Exercise: Find the recorded self-cleavage belonging to G48U U55C and report it.
Key: 0.977

Exercise: Find the recorded self-cleavage belonging to A40C U53A and report it.
Key: 0.311

Exercise: Find the recorded self-cleavage belonging to G17U G65A and report it.
Key: 0.254

Exercise: Find the recorded self-cleavage belonging to C12G U26A and report it.
Key: 0.695

Exercise: Find the recorded self-cleavage belonging to A15G G19A and report it.
Key: 0.216

Exercise: Find the recorded self-cleavage belonging to G3C U38G and report it.
Key: 0.0344

Exercise: Find the recorded self-cleavage belonging to G58A U64C and report it.
Key: 0.861

Exercise: Find the recorded self-cleavage belonging to G31U G56U and report it.
Key: 0.568

Exercise: Find the recorded self-cleavage belonging to G31C U44G and report it.
Key: 0.242
